SYSTEM: Dipeptidyl peptidase 8 (Homo sapiens, UniProt Q6V1X1)
Sequence (Q6V1X1 whole entry): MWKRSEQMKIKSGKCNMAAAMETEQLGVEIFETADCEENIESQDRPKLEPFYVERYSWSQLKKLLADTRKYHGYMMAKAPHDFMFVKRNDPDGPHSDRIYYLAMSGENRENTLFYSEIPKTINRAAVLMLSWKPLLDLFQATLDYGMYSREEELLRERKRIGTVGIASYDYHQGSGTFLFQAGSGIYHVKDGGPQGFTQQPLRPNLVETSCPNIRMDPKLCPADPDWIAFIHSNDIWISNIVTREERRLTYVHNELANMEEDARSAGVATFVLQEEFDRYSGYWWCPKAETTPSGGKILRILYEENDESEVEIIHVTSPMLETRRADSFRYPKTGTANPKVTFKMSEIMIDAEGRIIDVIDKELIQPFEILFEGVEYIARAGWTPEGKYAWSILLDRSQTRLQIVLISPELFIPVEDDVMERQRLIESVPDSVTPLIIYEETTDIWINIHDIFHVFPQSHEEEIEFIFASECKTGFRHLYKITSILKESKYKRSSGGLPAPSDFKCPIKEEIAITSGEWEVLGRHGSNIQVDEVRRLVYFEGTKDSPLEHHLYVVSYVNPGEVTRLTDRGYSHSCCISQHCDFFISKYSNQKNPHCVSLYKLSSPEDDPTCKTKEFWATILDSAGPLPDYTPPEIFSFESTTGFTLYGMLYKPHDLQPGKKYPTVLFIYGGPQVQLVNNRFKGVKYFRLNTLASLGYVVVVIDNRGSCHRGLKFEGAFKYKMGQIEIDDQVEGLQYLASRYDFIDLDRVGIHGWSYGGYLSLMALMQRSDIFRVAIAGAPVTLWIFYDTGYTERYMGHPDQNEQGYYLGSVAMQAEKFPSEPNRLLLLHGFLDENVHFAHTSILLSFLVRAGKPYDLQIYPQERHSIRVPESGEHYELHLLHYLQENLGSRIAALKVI
EXPERIMENT SUMMARY: Inhibition of human recombinant DPP8 incubated for 15 mins using Gly-Pro-7-AMC substrate
READOUT TYPE: IC50

Lookup: What does the data say about its IC50? Entry: CS(=O)(=O)n1cc2c(n1)CN([C@@H]1C[C@H](N)[C@@H](c3cc(F)ccc3F)O[C@@H]1C(F)(F)F)C2 [COFROGLIPTIN]
Found: > 100 µM

====

SYSTEM: Cytochrome P450 2C8 (Homo sapiens, UniProt P10632)
Sequence (P10632 whole entry): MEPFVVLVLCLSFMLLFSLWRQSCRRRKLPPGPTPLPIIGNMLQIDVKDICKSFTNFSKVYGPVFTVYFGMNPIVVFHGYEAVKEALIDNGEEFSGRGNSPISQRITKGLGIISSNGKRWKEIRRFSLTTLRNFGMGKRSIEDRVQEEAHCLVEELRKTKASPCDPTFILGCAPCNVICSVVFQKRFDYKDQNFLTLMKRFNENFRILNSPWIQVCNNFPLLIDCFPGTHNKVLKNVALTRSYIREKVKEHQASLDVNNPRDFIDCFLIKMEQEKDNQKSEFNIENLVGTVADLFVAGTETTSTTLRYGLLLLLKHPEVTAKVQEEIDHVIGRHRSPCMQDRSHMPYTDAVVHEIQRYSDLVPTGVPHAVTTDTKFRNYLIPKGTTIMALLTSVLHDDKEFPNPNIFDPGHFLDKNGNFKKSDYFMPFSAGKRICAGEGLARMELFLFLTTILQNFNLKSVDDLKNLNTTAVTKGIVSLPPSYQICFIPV
EXPERIMENT SUMMARY: Inhibition of recombinant human CYP2C8
Format: ADME
READOUT TYPE: pIC50
// pIC50 here means minus log10 of the molar concentration (mol/L)

Lookup: Which pIC50 value belongs to `CS(=O)(=O)n1cc2c(n1)CN([C@@H]1C[C@H](N)[C@@H](c3cc(F)ccc3F)O[C@@H]1C(F)(F)F)C2` ?
Found: 4.12

====

SYSTEM: Cytochrome P450 2C8 (Homo sapiens, UniProt P10632)
EXPERIMENT SUMMARY: Inhibition of recombinant human CYP2C8
Type: ADME
pIC50: −log10 of the molar value.
READOUT TYPE: pIC50

Lookup: Consider the compound CS(=O)(=O)n1cc2c(n1)CN([C@@H]1C[C@H](N)[C@@H](c3cc(F)ccc3F)O[C@@H]1C(F)(F)F)C2 [COFROGLIPTIN] and give its measured pIC50.
Found: < 4.00

====

EXPERIMENT SUMMARY: Intrinsic clearance in mouse liver microsomes at 0.5 uM incubated for 0.5 to 60 mins by LC-MS/MS analysis
Type: ADME, Microsome
REPORTED CONDITIONS: read-out: CLH
The reader will find reported microsomal CLint at 0.5 µM values listed item by item below.
Respond with the bare value in µL/min/mg.

Below are worked cases with known answers.
>  <SMILES STRUCTURE>
CS(=O)(=O)n1cc2c(n1)CN([C@H]1CO[C@H](c3cc(F)ccc3F)[C@@H](N)[C@H]1F)C2

>  <microsomal CLint at 0.5 µM / µL/min/mg>
1.2

$$$$
>  <SMILES STRUCTURE>
CS(=O)(=O)n1cc2c(n1)CN([C@@H]1C[C@H](N)[C@@H](c3cc(F)ccc3F)O[C@@H]1C(F)(F)F)C2

>  <microsomal CLint at 0.5 µM / µL/min/mg>
0.8

$$$$
>  <SMILES STRUCTURE>
CS(=O)(=O)n1cc2c(n1)CN([C@@H]1C[C@H](N)[C@@H](c3cc(F)c(F)cc3F)O[C@@H]1C(F)(F)F)C2

>  <microsomal CLint at 0.5 µM / µL/min/mg>
1.17

$$$$

Lookup: So what's the measured microsomal CLint at 0.5 µM for this one? `CS(=O)(=O)n1cc2c(n1)CN([C@H]1CO[C@H](c3cc(F)ccc3F)[C@@H](N)C1)C2`
Found: 1.89

====

# reported half-life; entries follow
EXPERIMENT SUMMARY: Half life in ICR mouse at 2 mg/kg, po measured after 0.0833 to 120 hrs by LC-MS-MS analysis
Format: ADME, organism-based
REPORTED CONDITIONS: in vivo
Number in h, nothing else.

Field: example entries. Status: answers known.
>  <COMPOUND>
CS(=O)(=O)n1cc2c(n1)CN([C@@H]1C[C@H](N)[C@@H](c3cc(F)ccc3F)O[C@@H]1C(F)(F)F)C2 [COFROGLIPTIN]

>  <half-life, h>
29.9

$$$$
>  <COMPOUND>
CS(=O)(=O)n1cc2c(n1)CN([C@@H]1C[C@H](N)[C@@H](c3cc(F)c(F)cc3F)O[C@@H]1C(F)(F)F)C2

>  <half-life, h>
20

$$$$
>  <COMPOUND>
CS(=O)(=O)n1cc2c(n1)CN([C@H]1CO[C@H](c3cc(F)ccc3F)[C@@H](N)[C@H]1F)C2

>  <half-life, h>
19.2

$$$$

Next up:
Lookup: Given CS(=O)(=O)n1cc2c(n1)CN([C@H]1CO[C@H](c3cc(F)ccc3F)[C@@H](N)C1)C2 [OMARIGLIPTIN] , state its recorded half-life.
Found: 4.65

====

SYSTEM: Cytochrome P450 3A5 (Homo sapiens)
EXPERIMENT SUMMARY: Inhibition of recombinant human CYP3A5 using testosterone as substrate
Type: ADME
pIC50: −log10 of the molar value.
READOUT TYPE: pIC50

Lookup: Can you look up the measured pIC50 of `CS(=O)(=O)n1cc2c(n1)CN([C@@H]1C[C@H](N)[C@@H](c3cc(F)ccc3F)O[C@@H]1C(F)(F)F)C2` for me?
Found: < 4.00

====

SYSTEM: Cytochrome P450 1A2 (Homo sapiens)
Sequence (P05177 whole entry): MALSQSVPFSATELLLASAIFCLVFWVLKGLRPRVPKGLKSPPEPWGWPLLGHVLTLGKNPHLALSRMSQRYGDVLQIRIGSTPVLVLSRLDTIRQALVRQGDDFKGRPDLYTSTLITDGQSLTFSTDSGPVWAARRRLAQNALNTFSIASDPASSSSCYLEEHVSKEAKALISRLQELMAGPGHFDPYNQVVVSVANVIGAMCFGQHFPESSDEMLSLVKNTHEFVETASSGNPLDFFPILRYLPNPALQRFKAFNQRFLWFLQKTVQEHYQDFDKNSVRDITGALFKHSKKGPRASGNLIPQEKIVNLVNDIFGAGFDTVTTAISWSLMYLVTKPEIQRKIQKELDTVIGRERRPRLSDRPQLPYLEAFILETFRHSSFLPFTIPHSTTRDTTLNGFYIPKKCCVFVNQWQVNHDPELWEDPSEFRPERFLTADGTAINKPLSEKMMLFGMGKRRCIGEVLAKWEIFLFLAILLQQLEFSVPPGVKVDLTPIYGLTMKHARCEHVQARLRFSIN
EXPERIMENT SUMMARY: Inhibition of recombinant human CYP1A2
Type: ADME
READOUT TYPE: IC50

Lookup: Fill in: IC50 of `CS(=O)(=O)n1cc2c(n1)CN([C@@H]1C[C@H](N)[C@@H](c3cc(F)ccc3F)O[C@@H]1C(F)(F)F)C2` is ___
Found: > 100 µM

====

EXPERIMENT SUMMARY: Toxicity in Sprague-Dawley rat during single oral dose toxicology study
REPORTED CONDITIONS: in vivo
READOUT TYPE: MTD

Lookup: So what's the measured MTD for this one? `CS(=O)(=O)n1cc2c(n1)CN([C@@H]1C[C@H](N)[C@@H](c3cc(F)ccc3F)O[C@@H]1C(F)(F)F)C2`
Found: 1000 mg/kg

====

SYSTEM: Cytochrome P450 2B6 (Homo sapiens, UniProt P20813)
Sequence (P20813 whole entry): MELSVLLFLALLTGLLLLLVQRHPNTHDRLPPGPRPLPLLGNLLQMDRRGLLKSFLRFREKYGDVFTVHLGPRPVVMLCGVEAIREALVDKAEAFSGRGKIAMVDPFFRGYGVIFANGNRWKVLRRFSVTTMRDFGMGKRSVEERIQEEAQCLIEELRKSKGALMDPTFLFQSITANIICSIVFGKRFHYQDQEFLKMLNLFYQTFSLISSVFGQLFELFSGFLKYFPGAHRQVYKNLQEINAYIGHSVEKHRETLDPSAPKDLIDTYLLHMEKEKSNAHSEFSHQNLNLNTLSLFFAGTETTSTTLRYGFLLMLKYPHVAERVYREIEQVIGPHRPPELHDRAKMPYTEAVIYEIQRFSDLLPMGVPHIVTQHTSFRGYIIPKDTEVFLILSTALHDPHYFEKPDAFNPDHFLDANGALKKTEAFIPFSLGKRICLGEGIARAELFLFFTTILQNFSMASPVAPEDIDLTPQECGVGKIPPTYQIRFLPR
EXPERIMENT SUMMARY: Inhibition of recombinant human CYP2B6
Assay type: ADME
READOUT TYPE: IC50

Lookup: API: value(readout=IC50, system=Cytochrome P450 2B6 (Homo sapiens, UniProt P20813)) for record `CS(=O)(=O)n1cc2c(n1)CN([C@@H]1C[C@H](N)[C@@H](c3cc(F)ccc3F)O[C@@H]1C(F)(F)F)C2`
Found: > 100 µM

====

SYSTEM: Cytochrome P450 2D6 (Homo sapiens, UniProt P10635)
Sequence (P10635 whole entry): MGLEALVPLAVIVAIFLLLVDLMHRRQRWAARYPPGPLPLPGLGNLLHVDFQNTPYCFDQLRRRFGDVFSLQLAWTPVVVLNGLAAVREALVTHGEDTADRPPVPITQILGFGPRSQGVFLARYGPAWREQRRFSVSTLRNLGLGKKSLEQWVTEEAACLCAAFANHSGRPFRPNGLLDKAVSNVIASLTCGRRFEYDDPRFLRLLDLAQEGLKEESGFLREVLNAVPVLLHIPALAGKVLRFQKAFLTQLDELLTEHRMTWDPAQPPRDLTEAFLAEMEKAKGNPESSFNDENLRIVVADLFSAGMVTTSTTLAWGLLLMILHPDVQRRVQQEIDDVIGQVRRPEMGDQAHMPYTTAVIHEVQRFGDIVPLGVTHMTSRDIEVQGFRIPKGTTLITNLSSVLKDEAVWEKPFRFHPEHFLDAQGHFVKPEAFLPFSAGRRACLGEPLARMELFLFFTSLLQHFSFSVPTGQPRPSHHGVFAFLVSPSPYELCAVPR
EXPERIMENT SUMMARY: Inhibition of recombinant human CYP2D6
Type: ADME
READOUT TYPE: IC50

Lookup: Which measured IC50 value corresponds to `CS(=O)(=O)n1cc2c(n1)CN([C@@H]1C[C@H](N)[C@@H](c3cc(F)ccc3F)O[C@@H]1C(F)(F)F)C2` ?
Found: > 100 µM

====

EXPERIMENT SUMMARY: AUC in T2D patient
Assay type: ADME
REPORTED CONDITIONS: human, in vivo
READOUT TYPE: AUC
Report as: number unit

Lookup: Query: AUC; subject: `CS(=O)(=O)n1cc2c(n1)CN([C@@H]1C[C@H](N)[C@@H](c3cc(F)ccc3F)O[C@@H]1C(F)(F)F)C2`
Found: 34900 ng·h/mL

====

SYSTEM: Cytochrome P450 3A5 (Homo sapiens, UniProt P20815)
Sequence (P20815 whole entry): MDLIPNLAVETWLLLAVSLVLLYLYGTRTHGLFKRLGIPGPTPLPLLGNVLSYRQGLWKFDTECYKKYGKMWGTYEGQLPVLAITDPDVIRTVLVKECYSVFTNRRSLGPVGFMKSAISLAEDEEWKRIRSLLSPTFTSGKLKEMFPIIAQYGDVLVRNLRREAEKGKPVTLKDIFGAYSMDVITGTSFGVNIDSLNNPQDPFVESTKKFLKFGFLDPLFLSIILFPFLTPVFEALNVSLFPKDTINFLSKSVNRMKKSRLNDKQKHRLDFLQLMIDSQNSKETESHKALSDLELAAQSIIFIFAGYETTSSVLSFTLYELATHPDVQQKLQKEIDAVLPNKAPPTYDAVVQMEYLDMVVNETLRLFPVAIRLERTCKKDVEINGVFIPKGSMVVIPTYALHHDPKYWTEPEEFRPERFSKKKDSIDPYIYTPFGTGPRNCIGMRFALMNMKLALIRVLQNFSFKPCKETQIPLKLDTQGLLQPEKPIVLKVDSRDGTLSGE
EXPERIMENT SUMMARY: Inhibition of recombinant human CYP3A5 using midazolam as substrate
Assay type: ADME
READOUT TYPE: IC50

Lookup: // IC50 lookup, key: `CS(=O)(=O)n1cc2c(n1)CN([C@@H]1C[C@H](N)[C@@H](c3cc(F)ccc3F)O[C@@H]1C(F)(F)F)C2`
Found: > 100 µM

====

SYSTEM: UniProt:P33261
Sequence (P33261 whole entry): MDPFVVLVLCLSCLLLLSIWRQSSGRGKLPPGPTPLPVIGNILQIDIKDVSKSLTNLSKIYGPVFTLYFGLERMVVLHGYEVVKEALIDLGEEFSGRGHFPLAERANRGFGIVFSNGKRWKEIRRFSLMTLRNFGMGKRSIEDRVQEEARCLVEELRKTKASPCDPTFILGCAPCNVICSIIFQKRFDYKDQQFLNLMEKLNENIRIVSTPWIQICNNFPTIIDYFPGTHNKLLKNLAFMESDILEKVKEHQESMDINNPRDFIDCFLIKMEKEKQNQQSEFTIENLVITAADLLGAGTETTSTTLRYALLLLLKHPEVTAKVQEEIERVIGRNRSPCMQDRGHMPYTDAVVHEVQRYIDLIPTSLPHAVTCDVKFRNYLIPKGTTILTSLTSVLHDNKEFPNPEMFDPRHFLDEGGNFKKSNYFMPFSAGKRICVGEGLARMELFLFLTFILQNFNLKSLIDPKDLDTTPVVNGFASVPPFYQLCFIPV
EXPERIMENT SUMMARY: Inhibition of recombinant human CYP2C19
Type: ADME
READOUT TYPE: IC50

Lookup: Query (compound): `CS(=O)(=O)n1cc2c(n1)CN([C@@H]1C[C@H](N)[C@@H](c3cc(F)ccc3F)O[C@@H]1C(F)(F)F)C2` ; field requested: IC50
Found: > 100 µM
